Origin of values: patent US20040018971A1

- target: T1, HLA-A*0101 (human)
- T1 construct: also called HLA-A1
- protocol_text: competition with 125I-labelled probe peptide for purified HLA-A*0101, gel filtration; ratio = IC50 of standard peptide 944.02 / IC50 of test peptide
Returns: string. Value is 1 (yes) if measured relative binding ratio is below 0.03 ratio, and 0 (no) if it is greater than or equal to it.

Exam item: Answer whether the binder ASCVTACPY (Synthetic peptide; also called Her2/neu.293) [HER2/neu peptide, position 293, 9 amino acids] has relative binding ratio strictly less than 0.03 ratio
Marked response: 0 (no)

Exam item: Answer whether the binder ELHCPALVTY [HER2/neu peptide, position 265, 10 amino acids] has relative binding ratio strictly less than 0.03 ratio
Marked response: 1 (yes)

Exam item: Answer whether the binder QIAKGMSY [HER2/neu peptide, position 828, 8 amino acids] has relative binding ratio strictly less than 0.03 ratio
Marked response: 1 (yes)

Exam item: Answer whether the binder SMPNPEGRY [HER2/neu peptide, position 281, 9 amino acids] has relative binding ratio strictly less than 0.03 ratio
Marked response: 1 (yes)

Exam item: Answer whether the binder FSPAFDNLY [HER2/neu peptide, position 1213, 9 amino acids] has relative binding ratio strictly less than 0.03 ratio
Marked response: 0 (no)

Exam item: Answer whether the binder VLQGLPREY [HER2/neu peptide, position 546, 9 amino acids] has relative binding ratio strictly less than 0.03 ratio
Marked response: 1 (yes)

Exam item: Answer whether the binder ASPLDSTFY [HER2/neu peptide, position 997, 9 amino acids] has relative binding ratio strictly less than 0.03 ratio
Marked response: 1 (yes)

Exam item: Answer whether the binder VTACPYNY (Synthetic peptide; also called Her2/neu.296) [HER2/neu peptide, position 296, 8 amino acids] has relative binding ratio strictly less than 0.03 ratio
Marked response: 0 (no)

Exam item: Answer whether the binder PTAENPEY [HER2/neu peptide, position 1241, 8 amino acids] has relative binding ratio strictly less than 0.03 ratio
Marked response: 1 (yes)

Exam item: Answer whether the binder LMTFGAKPY [HER2/neu peptide, position 915, 9 amino acids] has relative binding ratio strictly less than 0.03 ratio
Marked response: 1 (yes)

Exam item: Answer whether the binder GSGAFGTVY [HER2/neu peptide, position 727, 9 amino acids] has relative binding ratio strictly less than 0.03 ratio
Marked response: 1 (yes)

Exam item: Answer whether the binder MTFGAKPY [HER2/neu peptide, position 916, 8 amino acids] has relative binding ratio strictly less than 0.03 ratio
Marked response: 1 (yes)

Exam item: Answer whether the binder ETLEEITGY [HER2/neu peptide, position 401, 9 amino acids] has relative binding ratio strictly less than 0.03 ratio
Marked response: 0 (no)

Exam item: Answer whether the binder TLEEITGY [HER2/neu peptide, position 402, 8 amino acids] has relative binding ratio strictly less than 0.03 ratio
Marked response: 1 (yes)

Exam item: Answer whether the binder PLPSETDGY [HER2/neu peptide, position 1119, 9 amino acids] has relative binding ratio strictly less than 0.03 ratio
Marked response: 1 (yes)

Exam item: Answer whether the binder CVTACPYNY [HER2/neu peptide, position 295, 9 amino acids] has relative binding ratio strictly less than 0.03 ratio
Marked response: 1 (yes)
